- experimental_conditions: 298.2 K; 100.9 kPa; Liquid; Cone and plate viscometry
Quick reference: viscosity of the listed items.
Unit mPa·s implied. Number only.

Below: 3 molecules and their reported viscosity.
>  <chemical_string>
CC(C)n1cc[n+](C)c1.O=S(=O)([N-]S(=O)(=O)C(F)(F)C(F)(F)F)C(F)(F)C(F)(F)F

>  <result_units>
mPa·s

>  <viscosity>
121.4

$$$$
>  <chemical_string>
CC(C)[n+]1ccn(C)c1.O=S(=O)([N-]S(=O)(=O)C(F)(F)F)C(F)(F)F

>  <result_units>
mPa·s

>  <viscosity>
45.5

$$$$
>  <chemical_string>
C[n+]1ccn(C(C)(C)C)c1.O=S(=O)([N-]S(=O)(=O)C(F)(F)F)C(F)(F)F

>  <result_units>
mPa·s

>  <viscosity>
121.4

$$$$

Req: What value of viscosity has been recorded for this entry: "C[n+]1ccn(C(C)(C)C)c1.O=S(=O)([N-]S(=O)(=O)C(F)(F)C(F)(F)F)C(F)(F)C(F)(F)F"
Resp: 367.2
